The measured values listed here are drawn from patent US7759331B2.

Entries and their Activity at Protein Kinase Assays (% of control), Lck(h) values follow.
Target: Lck(h) (Homo sapiens, UniProt P06239)
Sequence (P06239 whole entry): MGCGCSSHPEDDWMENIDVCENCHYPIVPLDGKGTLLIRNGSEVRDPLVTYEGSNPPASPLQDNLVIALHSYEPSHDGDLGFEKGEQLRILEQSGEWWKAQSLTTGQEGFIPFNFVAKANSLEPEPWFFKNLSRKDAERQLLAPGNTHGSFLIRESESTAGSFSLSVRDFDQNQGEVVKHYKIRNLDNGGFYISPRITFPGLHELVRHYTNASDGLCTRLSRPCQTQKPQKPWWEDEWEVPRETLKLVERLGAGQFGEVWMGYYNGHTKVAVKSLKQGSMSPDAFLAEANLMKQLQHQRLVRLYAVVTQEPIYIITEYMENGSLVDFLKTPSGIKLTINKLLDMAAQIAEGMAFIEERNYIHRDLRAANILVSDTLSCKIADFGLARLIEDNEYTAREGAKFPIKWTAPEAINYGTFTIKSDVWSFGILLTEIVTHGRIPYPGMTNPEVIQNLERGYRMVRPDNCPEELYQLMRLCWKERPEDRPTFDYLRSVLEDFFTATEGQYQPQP
Experiment: Protein kinase selectivity panel
Format: biochemical
Conditions: 1.0 μM compound, 10 μM ATP

The examples below pair each entry with its known result.
> print(dat)
                                smiles.repr  experimental.value
1  CN(C)c1cc2cc(n1)CCCn1cc(c3ccccc31)C1=C(C(=O)NC1=O)c1cn(c3ccccc13)CCC2    100 % of control
2  O=C1NC(=O)C2=C1c1cn(c3ccccc13)CCCc1cc(nc(N3CCCC3)c1)CCCn1cc2c2ccccc21     99 % of control
3  CN(C)c1nc2ccc1CCCCn1cc(c3ccccc31)C1=C(C(=O)NC1=O)c1cn(c3ccccc13)CCC2     96 % of control

API: the following record is the query input.
Please fill in: Activity at Protein Kinase Assays (% of control), Lck(h) reported for O=C1NC(=O)C2=C1c1cn(c3ccccc13)CCCc1ccc(c(N3CCCC3)n1)CCCn1cc2c2ccccc21 = 90 % of control

====

Activity at Protein Kinase Assays (% of control), JNK3(h) values, listed per item
Target: JNK3(h) (Homo sapiens, UniProt P53779)
Sequence (P53779 whole entry): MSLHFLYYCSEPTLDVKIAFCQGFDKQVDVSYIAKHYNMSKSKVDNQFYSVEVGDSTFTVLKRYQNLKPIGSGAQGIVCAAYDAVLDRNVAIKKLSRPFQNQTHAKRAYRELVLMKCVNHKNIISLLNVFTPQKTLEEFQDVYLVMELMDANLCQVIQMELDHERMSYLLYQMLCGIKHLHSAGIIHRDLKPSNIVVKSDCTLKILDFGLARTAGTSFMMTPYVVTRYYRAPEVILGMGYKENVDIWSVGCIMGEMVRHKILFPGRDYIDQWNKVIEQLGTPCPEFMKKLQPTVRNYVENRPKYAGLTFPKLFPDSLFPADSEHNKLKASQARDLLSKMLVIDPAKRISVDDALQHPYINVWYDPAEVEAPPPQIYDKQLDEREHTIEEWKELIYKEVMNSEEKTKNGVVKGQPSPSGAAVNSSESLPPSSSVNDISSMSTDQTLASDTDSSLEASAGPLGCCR
Assay: Protein kinase selectivity panel
Assay type: biochemical
Conditions: 1.0 μM compound, 10 μM ATP

Here's what some known entries look like.
> print(dat)
                                   compound                         measured.target  experimental.value
1  CN(C)c1nc2ccc1CCCCn1cc(c3ccccc31)C1=C(C(=O)NC1=O)c1cn(c3ccccc13)CCC2 [Cpd 1]  JNK3(h) (Homo sapiens, UniProt P53779)     96 % of control
2  O=C1NC(=O)C2=C1c1cn(c3ccccc13)CCCc1cc(nc(N3CCCC3)c1)CCCn1cc2c2ccccc21 [Cpd 6]  JNK3(h) (Homo sapiens, UniProt P53779)    103 % of control

Measured Activity at Protein Kinase Assays (% of control), JNK3(h) of CN(C)c1cc2cc(n1)CCCn1cc(c3ccccc31)C1=C(C(=O)NC1=O)c1cn(c3ccccc13)CCC2 [Cpd 2] : 107 % of control

Per the record, O=C1NC(=O)C2=C1c1cn(c3ccccc13)CCCc1ccc(c(N3CCCC3)n1)CCCn1cc2c2ccccc21 [Cpd 7] has Activity at Protein Kinase Assays (% of control), JNK3(h) of 102 % of control

====

Biological target: PKBβ(h) (Homo sapiens)
Sequence (P31751 whole entry): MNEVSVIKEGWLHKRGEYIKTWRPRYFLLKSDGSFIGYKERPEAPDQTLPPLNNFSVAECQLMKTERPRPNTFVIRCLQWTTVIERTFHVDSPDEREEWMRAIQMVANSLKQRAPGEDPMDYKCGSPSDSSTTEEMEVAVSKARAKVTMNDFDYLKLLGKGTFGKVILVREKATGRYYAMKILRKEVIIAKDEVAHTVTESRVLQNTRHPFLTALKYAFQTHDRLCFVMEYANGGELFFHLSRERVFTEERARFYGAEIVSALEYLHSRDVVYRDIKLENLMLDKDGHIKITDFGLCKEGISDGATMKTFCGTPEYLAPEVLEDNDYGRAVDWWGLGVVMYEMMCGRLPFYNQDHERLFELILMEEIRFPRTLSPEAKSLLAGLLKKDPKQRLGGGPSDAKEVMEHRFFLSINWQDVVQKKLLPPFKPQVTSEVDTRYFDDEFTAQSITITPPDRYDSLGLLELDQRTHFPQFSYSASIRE
Assay: Protein kinase selectivity panel
Format: biochemical
Details: 1.0 μM compound, 10 μM ATP
measurement-name: Activity at Protein Kinase Assays (% of control), PKBβ(h)

> print(dat)
                                   molecule  experimental.value
1  O=C1NC(=O)C2=C1c1cn(c3ccccc13)CCCc1ccc(c(N3CCCC3)n1)CCCn1cc2c2ccccc21 [Cpd 7]    102 % of control
2  O=C1NC(=O)C2=C1c1cn(c3ccccc13)CCCc1cc(nc(N3CCCC3)c1)CCCn1cc2c2ccccc21 [Cpd 6]    104 % of control

Kindly note the recorded Activity at Protein Kinase Assays (% of control), PKBβ(h) for CN(C)c1cc2cc(n1)CCCn1cc(c3ccccc31)C1=C(C(=O)NC1=O)c1cn(c3ccccc13)CCC2 [Cpd 2] , which is 118 % of control

Form: molecule = CN(C)c1nc2ccc1CCCCn1cc(c3ccccc31)C1=C(C(=O)NC1=O)c1cn(c3ccccc13)CCC2 [Cpd 1] ; Activity at Protein Kinase Assays (% of control), PKBβ(h) = 86 % of control

====

Biological target: PKCθ(h) (Homo sapiens)
Sequence (Q04759 whole entry): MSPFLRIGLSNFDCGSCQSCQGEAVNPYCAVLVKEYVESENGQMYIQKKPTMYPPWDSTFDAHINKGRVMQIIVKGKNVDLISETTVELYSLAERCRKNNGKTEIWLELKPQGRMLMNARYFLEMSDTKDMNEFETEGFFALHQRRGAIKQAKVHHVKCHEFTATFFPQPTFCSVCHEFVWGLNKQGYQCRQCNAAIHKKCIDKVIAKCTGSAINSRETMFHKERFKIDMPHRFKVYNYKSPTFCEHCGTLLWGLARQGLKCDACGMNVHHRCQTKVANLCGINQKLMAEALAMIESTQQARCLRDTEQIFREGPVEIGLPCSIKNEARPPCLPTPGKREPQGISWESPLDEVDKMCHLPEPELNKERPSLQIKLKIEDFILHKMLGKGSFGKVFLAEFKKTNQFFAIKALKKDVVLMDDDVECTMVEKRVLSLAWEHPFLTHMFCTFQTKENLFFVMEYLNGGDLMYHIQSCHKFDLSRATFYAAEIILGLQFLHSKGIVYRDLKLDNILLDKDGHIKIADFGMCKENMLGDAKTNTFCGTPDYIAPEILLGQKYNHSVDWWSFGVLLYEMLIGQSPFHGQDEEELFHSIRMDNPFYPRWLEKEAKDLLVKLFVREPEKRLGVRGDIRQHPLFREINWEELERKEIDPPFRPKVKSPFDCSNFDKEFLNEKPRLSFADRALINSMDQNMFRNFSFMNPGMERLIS
Test: Protein kinase selectivity panel
Type: biochemical
Conditions: 1.0 μM compound, 10 μM ATP
Form field: Activity at Protein Kinase Assays (% of control), PKCθ(h) (one value per entry).

> print(dat)
                                   compound  experimental.value
1  CN(C)c1nc2ccc1CCCCn1cc(c3ccccc31)C1=C(C(=O)NC1=O)c1cn(c3ccccc13)CCC2 [Cpd 1]     21 % of control

Response field Activity at Protein Kinase Assays (% of control), PKCθ(h) (PKCθ(h) (Homo sapiens)) for item CN(C)c1cc2cc(n1)CCCn1cc(c3ccccc31)C1=C(C(=O)NC1=O)c1cn(c3ccccc13)CCC2 [Cpd 2] : 27 % of control

Record O=C1NC(=O)C2=C1c1cn(c3ccccc13)CCCc1cc(nc(N3CCCC3)c1)CCCn1cc2c2ccccc21 [Cpd 6] / PKCθ(h) (Homo sapiens), Activity at Protein Kinase Assays (% of control), PKCθ(h) recorded as 29 % of control

// returns Activity at Protein Kinase Assays (% of control), PKCθ(h) for O=C1NC(=O)C2=C1c1cn(c3ccccc13)CCCc1ccc(c(N3CCCC3)n1)CCCn1cc2c2ccccc21 [Cpd 7] with PKCθ(h) (Homo sapiens); value = 33 % of control

====

Biological target: Aurora-A(h) (Homo sapiens)
Sequence (O14965 whole entry): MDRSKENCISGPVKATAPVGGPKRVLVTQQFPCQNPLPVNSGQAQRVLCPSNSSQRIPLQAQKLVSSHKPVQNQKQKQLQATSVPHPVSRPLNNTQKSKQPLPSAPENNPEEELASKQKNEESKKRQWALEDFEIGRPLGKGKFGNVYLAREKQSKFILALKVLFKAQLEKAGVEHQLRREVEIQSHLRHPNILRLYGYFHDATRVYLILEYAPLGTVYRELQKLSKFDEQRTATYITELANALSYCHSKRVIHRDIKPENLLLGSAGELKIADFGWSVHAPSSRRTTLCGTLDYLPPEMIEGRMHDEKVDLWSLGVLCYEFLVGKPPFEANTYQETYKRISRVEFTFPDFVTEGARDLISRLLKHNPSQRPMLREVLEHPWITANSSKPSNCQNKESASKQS
Assay: Protein kinase selectivity panel
Type: biochemical
Conditions: 1.0 μM compound, 10 μM ATP
Some molecules, each annotated with its measured Activity at Protein Kinase Assays (% of control), Aurora-A(h).

> print(dat)
                                smiles.repr             measured.target  experimental.value
1  O=C1NC(=O)C2=C1c1cn(c3ccccc13)CCCc1ccc(c(N3CCCC3)n1)CCCn1cc2c2ccccc21  Aurora-A(h) (Homo sapiens)    106 % of control

Per the record, CN(C)c1cc2cc(n1)CCCn1cc(c3ccccc31)C1=C(C(=O)NC1=O)c1cn(c3ccccc13)CCC2 has Activity at Protein Kinase Assays (% of control), Aurora-A(h) of 111 % of control

In plain terms, CN(C)c1nc2ccc1CCCCn1cc(c3ccccc31)C1=C(C(=O)NC1=O)c1cn(c3ccccc13)CCC2 has a documented Activity at Protein Kinase Assays (% of control), Aurora-A(h) of 109 % of control

For record O=C1NC(=O)C2=C1c1cn(c3ccccc13)CCCc1cc(nc(N3CCCC3)c1)CCCn1cc2c2ccccc21 the listed Activity at Protein Kinase Assays (% of control), Aurora-A(h) is 111 % of control

====

# Activity at Protein Kinase Assays (% of control), Arg(m) listing for each entry below
Target: Arg(m) (Mus musculus)
Sequence (Q4JIM5 whole entry): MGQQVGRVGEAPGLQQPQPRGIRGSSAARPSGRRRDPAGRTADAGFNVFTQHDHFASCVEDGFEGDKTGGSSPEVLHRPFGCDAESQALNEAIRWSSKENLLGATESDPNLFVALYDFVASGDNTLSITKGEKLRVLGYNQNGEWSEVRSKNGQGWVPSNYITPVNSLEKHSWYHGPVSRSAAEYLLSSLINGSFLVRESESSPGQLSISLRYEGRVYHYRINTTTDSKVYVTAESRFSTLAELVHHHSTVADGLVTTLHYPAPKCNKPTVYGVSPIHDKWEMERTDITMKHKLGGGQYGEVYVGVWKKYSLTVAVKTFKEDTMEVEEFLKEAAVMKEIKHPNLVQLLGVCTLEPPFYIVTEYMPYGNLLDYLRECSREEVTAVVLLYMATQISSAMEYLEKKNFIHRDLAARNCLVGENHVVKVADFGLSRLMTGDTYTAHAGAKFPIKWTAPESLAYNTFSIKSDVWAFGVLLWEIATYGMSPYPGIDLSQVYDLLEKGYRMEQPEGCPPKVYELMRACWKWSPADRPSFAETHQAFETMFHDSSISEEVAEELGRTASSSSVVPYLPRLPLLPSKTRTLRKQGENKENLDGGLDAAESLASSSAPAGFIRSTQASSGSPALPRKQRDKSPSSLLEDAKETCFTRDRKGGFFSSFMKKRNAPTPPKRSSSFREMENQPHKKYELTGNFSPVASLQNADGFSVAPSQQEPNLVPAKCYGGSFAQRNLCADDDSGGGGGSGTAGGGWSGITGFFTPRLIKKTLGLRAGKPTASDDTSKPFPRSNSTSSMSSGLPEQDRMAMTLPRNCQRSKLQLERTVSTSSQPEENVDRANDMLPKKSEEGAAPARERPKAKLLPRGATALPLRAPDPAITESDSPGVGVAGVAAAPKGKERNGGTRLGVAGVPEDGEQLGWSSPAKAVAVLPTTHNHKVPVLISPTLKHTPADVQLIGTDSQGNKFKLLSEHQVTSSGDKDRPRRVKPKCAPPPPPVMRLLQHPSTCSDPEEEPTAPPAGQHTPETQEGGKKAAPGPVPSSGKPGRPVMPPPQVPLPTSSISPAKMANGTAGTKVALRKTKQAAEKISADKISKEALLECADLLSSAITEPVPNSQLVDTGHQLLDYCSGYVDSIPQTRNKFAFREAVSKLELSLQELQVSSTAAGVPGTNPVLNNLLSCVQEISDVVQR
Test: Protein kinase selectivity panel
Format: biochemical
Settings: 1.0 μM compound, 10 μM ATP
Description: Protein kinase selectivity assays were performed as described in the scientific literature (Davies, S. P., et al., Biochem. J. 2000, 351, 95-105). Briefly, protein kinases were assayed for their ability to phosphorylate the appropriate peptide/protein substrates in the presence of 1.0 μM compound. Assays were done using 10 μM ATP and were linear with respect to time. […]

A selection of reference data follows.
> print(dat)
                                   molecule  experimental.value
1  O=C1NC(=O)C2=C1c1cn(c3ccccc13)CCCc1ccc(c(N3CCCC3)n1)CCCn1cc2c2ccccc21 [Cpd 7]    130 % of control
2  CN(C)c1nc2ccc1CCCCn1cc(c3ccccc31)C1=C(C(=O)NC1=O)c1cn(c3ccccc13)CCC2 [Cpd 1]    113 % of control
3  O=C1NC(=O)C2=C1c1cn(c3ccccc13)CCCc1cc(nc(N3CCCC3)c1)CCCn1cc2c2ccccc21 [Cpd 6]    121 % of control

API: the following record is the query input.
Per the records, this molecule ( CN(C)c1cc2cc(n1)CCCn1cc(c3ccccc31)C1=C(C(=O)NC1=O)c1cn(c3ccccc13)CCC2 [Cpd 2] ) has Activity at Protein Kinase Assays (% of control), Arg(m) equal to 129 % of control

====

Biological target: JNK1α1(h) (Homo sapiens, UniProt P45983)
Sequence (P45983 1-384 isoform P45983-2): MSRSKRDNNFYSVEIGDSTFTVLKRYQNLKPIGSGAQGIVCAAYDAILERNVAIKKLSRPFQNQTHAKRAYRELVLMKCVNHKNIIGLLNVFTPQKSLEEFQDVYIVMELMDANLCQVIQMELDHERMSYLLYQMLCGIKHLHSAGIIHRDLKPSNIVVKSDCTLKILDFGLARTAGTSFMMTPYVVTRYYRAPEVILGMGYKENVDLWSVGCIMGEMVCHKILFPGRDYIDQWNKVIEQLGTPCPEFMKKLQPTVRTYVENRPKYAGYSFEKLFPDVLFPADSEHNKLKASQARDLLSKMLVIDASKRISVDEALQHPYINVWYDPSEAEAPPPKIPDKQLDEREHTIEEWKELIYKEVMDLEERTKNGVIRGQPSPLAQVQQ
Assay: Protein kinase selectivity panel
Type: biochemical
Details: 1.0 μM compound, 10 μM ATP
Recorded Activity at Protein Kinase Assays (% of control), JNK1α1(h) by entry

Example cases with answers are listed next.
> print(dat)
                                   compound                           measured.target  experimental.value
1  O=C1NC(=O)C2=C1c1cn(c3ccccc13)CCCc1cc(nc(N3CCCC3)c1)CCCn1cc2c2ccccc21 [Cpd 6]  JNK1α1(h) (Homo sapiens, UniProt P45983)    108 % of control
2  O=C1NC(=O)C2=C1c1cn(c3ccccc13)CCCc1ccc(c(N3CCCC3)n1)CCCn1cc2c2ccccc21 [Cpd 7]  JNK1α1(h) (Homo sapiens, UniProt P45983)    104 % of control
3  CN(C)c1nc2ccc1CCCCn1cc(c3ccccc31)C1=C(C(=O)NC1=O)c1cn(c3ccccc13)CCC2 [Cpd 1]  JNK1α1(h) (Homo sapiens, UniProt P45983)    102 % of control

Briefly, Activity at Protein Kinase Assays (% of control), JNK1α1(h) measured for CN(C)c1cc2cc(n1)CCCn1cc(c3ccccc31)C1=C(C(=O)NC1=O)c1cn(c3ccccc13)CCC2 [Cpd 2] : 105 % of control
